Where these numbers come from: the MegaScale stability set (Tsuboyama et al. 2023)

B1: 6NMW (parent)
chain: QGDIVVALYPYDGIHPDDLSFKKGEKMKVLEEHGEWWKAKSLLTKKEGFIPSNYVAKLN

variants of: B1; assay: folding stability dG (cDNA display proteolysis); higher = more stable; conditions: PBS, room temperature
Assign criterion met to entries whose folding stability dG meets or exceeds 3 kcal/mol; assign criterion not met to the rest.

G2L; criterion met
N59L; criterion met
W36V; criterion met
H33M; criterion met
K22W; criterion not met
H15M; criterion not met
V55E; criterion not met

Could you now look at the following variant, please?
Query block: Say whether G48N shows folding stability dG of 3 kcal/mol or more.
Result block: criterion not met
